Catalogue of GI50 readings, one per entry.
- Tested on: RXF 393
- test: NCI tumour cell line growth inhibition, 48 h
Active and inactive are the calls of the source. No stated cut-off is given here; in the data, active = GI50 up to about 1.1 µM and inactive = higher.

Study these solved cases before continuing.
Oc1ccc(-c2nc3cc(C(F)(F)F)ccc3s2)cc1: 17.4 µM (inactive)
COC(=O)CCC(NC(=S)N/N=C/c1ccccn1)C(=O)OC (stereo not given): > 100 µM (inactive)
COC(C(O)CO)C(O)C(O)C(=O)NNc1ccccc1 (stereo not given): > 100 µM (inactive)

(Q) Quick check: GI50 on RXF 393, item CC1C[C@@H]2C(=O)NC(=O)[C@@H]2c2c1c1ccccc1n2C (stereo not given in full) ?
(A) > 100 µM (inactive)

(Q) Field entry: c1ccc(-c2nnn(CCN3CCCCC3)n2)cc1
(A) > 100 µM (inactive)

(Q) Field entry: CCOC(=O)C1(C(=O)OCC)C[C@H](C)[C@](C)(O)C1
(A) > 100 µM (inactive)

(Q) Field entry: CN1N=C2c3ccccc3CC[C@H]2C1c1ccccc1 (stereo not given in full)
(A) 17 µM (inactive)

(Q) Field entry: Clc1ccc(C(SCc2ccccc2)SCc2ccccc2)cc1
(A) > 10 µM (inactive)

(Q) Field entry: CN(C)c1ccc(C(=C2C=CC(=[N+](C)C)C=C2)c2c(O)c(S(=O)(=O)[O-])cc3cc(S(=O)(=O)O)ccc23)cc1
(A) > 100 µM (inactive)

(Q) Field entry: c1ccc(-c2sc(-c3ccccc3)c3c2C(c2ccccc2)c2c(-c4ccccc4)sc(-c4ccccc4)c2C3c2ccccc2)cc1 (stereo not given)
(A) > 100 µM (inactive)

(Q) Field entry: CSc1c(C#N)c(N)n(-c2ccc(Cl)cc2)c(=O)c1C#N
(A) > 100 µM (inactive)

(Q) Field entry: O=C(c1ccc(NCN2C(=O)CCC2=O)cc1)c1ccc(NCN2C(=O)CCC2=O)cc1
(A) > 100 µM (inactive)

(Q) Field entry: COC(=O)/C=C1\C(=O)N(C(C)=O)c2ccc(Br)cc21
(A) 7.46 µM (inactive)

(Q) Field entry: COC(=O)N/N=C(/CC1(O)C(=O)Nc2ccc([N+](=O)[O-])cc21)c1ccccc1 (stereo not given)
(A) 22 µM (inactive)

(Q) Field entry: O=c1cc(-c2ccccc2)oc2ccc(Oc3nnnn3-c3ccccc3)cc12
(A) > 51.5 µM (inactive)

* * *

- Test system: IGROV-1
- test: NCI tumour cell line growth inhibition, 48 h
The source made the active and inactive calls. No stated cut-off is given here; in the data, active = GI50 up to about 1.1 µM and inactive = higher.
Hi there, use one of these labels in your reply, thanks! active, inactive

CC1/C=C/C=C/CC/C=C/C=C/C=C/C=C/C(OC2OC(C)C(O)C(N)C2O)CC2OC(CC(O)C(O)CCC(O)CC(O)CC(O)CC(=O)OC(C)C(C)C1O)CC(O)C2C(=O)O (stereo not drawn): inactive
O=C1Nc2ccccc2/C1=C\c1c(Cl)[nH]c2ccccc12: active

Moving on to another compound below.
(Q) Called result for O=c1cc(-c2ccccc2)oc2ccc(Oc3nnnn3-c3ccccc3)cc12
(A) inactive

* * *

- Test system: HCT-116
- test: NCI tumour cell line growth inhibition, 48 h
Calls of active or inactive are those of the source. No stated cut-off is given here; in the data, active = GI50 up to about 1.1 µM and inactive = higher.
reportedEndpoint: GI50

O=C1Oc2ccccc2C(=O)/C1=C/N1C(=O)CNC1=S: > 100 µM (inactive)
NC1=NCC(CN2CCOCC2)O1 (stereo unspecified): > 100 µM (inactive)
Cc1cc(NC(=S)SCc2ccc(F)cc2)c([N+](=O)[O-])cc1C: 26.2 µM (inactive)

(Q) Quick check: GI50 on HCT-116, item COc1cc2c(c(OC)c1)C(C)=NC(C)C2 (stereo unspecified) ?
(A) 51.2 µM (inactive)

(Q) Field entry: CC1=C(c2cc(C(=O)Nc3nccs3)nc(NC#N)n2)Sc2ccccc2N1
(A) > 100 µM (inactive)

(Q) Field entry: Cc1nn(-c2ccccc2)c(C)c1/C=N/N=C1\S/C(=C\c2ccc(Cl)cc2)C(=O)N1c1ccccc1
(A) 9.48 µM (inactive)

* * *

- System: NCI-H460
- test: NCI tumour cell line growth inhibition, 48 h
Activity calls are given as the source filed them. No stated cut-off is given here; in the data, active = GI50 up to about 1.1 µM and inactive = higher.
Catalogue of GI50 readings, one per entry.

Study these solved cases before continuing.
O=C(O)c1ccc(Cc2ccccc2C(=O)O)cc1: > 100 µM (inactive)
C[Si](C)(C)CN1C(=O)c2ccccc2C1(O)c1ccccc1 (configuration not stated): 65.6 µM (inactive)

Now examine the next entry.
(Q) Fill blank: measured GI50 of the compound COc1ccc(C(=O)/C=C/c2cc(O)c(O)cc2F)c(OC)c1 is ____.
(A) 3.99 µM (inactive)

* * *

- Tested on: SN12C
- test: NCI tumour cell line growth inhibition, 48 h
Activity calls are given as the source filed them. No stated cut-off is given here; in the data, active = GI50 up to about 1.1 µM and inactive = higher.
Hi there, use one of these labels in your reply, thanks! active, inactive

Some solved entries appear below for comparison.
C=C1c2ccccc2Oc2nc3nc(N)c(C#N)c(N)c3c(N)c21: inactive
C/C=C(\NC(=O)C(CCCCN)NC(=O)C(C)NC(=O)C1CSC(C)C(NC(=O)C2CSCC(NC(=O)C(C)NC(=O)C(N)C(C)CC)C(=O)NC(CCCCN)C(=O)NC(Cc3ccccc3)C(=O)NC(CC(C)C)C(=O)N2)C(=O)N2CCCC2C(=O)NCC(=O)N1)C(=O)NCC(=O)NC1CSCC2NC(=O)C(Cc3ccc(O)cc3)NC(=O)C(CSC=CNC2=O)NC(=O)C(CC(N)=O)NC(=O)C(Cc2ccccc2)NC1=O (stereo not given): inactive
CC(=O)OCC(OC(C)=O)C1C[C@H]2O[C@@H]3[C@H](C[C@H]2O1)O[C@@]1(C[C@@H]3C)C[C@H](C)[C@@H]2O[C@]3(C[C@@H]2O1)C[C@H]1O[C@H]2[C@H](C)[C@H]4OC(=O)CC5CC[C@H]6OC7[C@H]8O[C@]9(CC[C@H]%10CC(O)(CO)[C@H](CC[C@H]%11C[C@@H](C)C(O)(CO)C(C[C@@H]4O[C@H]2C[C@H]1O3)O%11)O%10)CC8O[C@@H]7[C@@H](O9)[C@H]6O5 (stereo not given in full): active
Cc1ccc([C@@H]2[C@@H](C(=O)c3ccccn3)[C@H](c3ccc(C)cc3)C[C@](O)(c3ccccn3)[C@H]2C(=O)c2ccccn2)cc1: inactive
Cc1nc2ccncc2[nH]1: inactive

(Q) Called result for CCCn1c(=O)c(N2CCN(c3ccccc3)CC2)nc2sc3ccccc3c21
(A) inactive

(Q) Field entry: C=CC(CCc1ccc(C(=O)OCC)cc1)c1c(N)nc(N)[nH]c1=O (stereo not given)
(A) inactive

(Q) Field entry: CCCC(=O)C1=C(O)C(Cc2c(O)c(C)c(O)c(C(=O)CCC)c2O)=C(O)C(C)(C)C1=O
(A) inactive

(Q) Field entry: COc1c2cc([N+](=O)[O-])cc1CN(C(=O)C(F)(F)F)CCOCCN(C(=O)C(F)(F)F)C2
(A) inactive

(Q) Field entry: Cc1ccc([N+](=O)[O-])cc1S(=O)(=O)Nc1ccc(C2=NN(S(=O)(=O)c3cc([N+](=O)[O-])ccc3C)C(c3cccs3)C2)cc1 (stereo not given)
(A) inactive

(Q) Field entry: CN1c2ccccc2N(C)C2C1N(C)c1ccccc1N2C (stereo not given)
(A) inactive

(Q) Field entry: CN(C(=O)Cc1ccc(Cl)c(Cl)c1)[C@@H]1CCCC[C@H]1[N+]1(C)CC=CC1
(A) inactive

(Q) Field entry: CC(=O)C=C1Nc2ccccc2N1
(A) inactive

(Q) Field entry: CN1CC[C@]2(c3cccc(O)c3)CC(=O)/C(=C/c3ccc(Cl)c(Cl)c3)[C@@H]1C2
(A) active

(Q) Field entry: CC1/C=C/C=C/CC/C=C/C=C/C=C/C=C/C(OC2OC(C)C(O)C(N)C2O)CC2OC(CC(O)C(O)CCC(O)CC(O)CC(O)CC(=O)OC(C)C(C)C1O)CC(O)C2C(=O)O (stereo not given)
(A) inactive

(Q) Field entry: COc1ccc2c(c1)[n+]([O-])c(-c1ccccc1)c(N)[n+]2[O-]
(A) inactive

(Q) Field entry: CN/N=C(\C)c1c(O)cc(C)oc1=O
(A) inactive

(Q) Field entry: CCc1cccc(C)c1N1C(=O)C(=O)C(c2nc3ccccc3o2)C(=O)C1=O
(A) inactive

(Q) Field entry: CC1(C)C2CCC(=O)C1CC2 (stereo not given)
(A) inactive

* * *

- Tested on: SK-MEL-2
- test: NCI tumour cell line growth inhibition, 48 h
Active and inactive are the calls of the source. Rule as the data show it: active = GI50 up to about 1.1 µM and inactive = higher.
reportedEndpoint: GI50

Study these solved cases before continuing.
CC1/C=C/C=C/CC/C=C/C=C/C=C/C=C/C(OC2OC(C)C(O)C(N)C2O)CC2OC(CC(O)C(O)CCC(O)CC(O)CC(O)CC(=O)OC(C)C(C)C1O)CC(O)C2C(=O)O (stereo not drawn): 28.6 µM (inactive)
COC(=O)c1cc2c(cc1CC(Cc1ccc3c(c1)CCC3)C(=O)OC)CCC2 (stereo not drawn): 44.1 µM (inactive)
O=C(Cn1cc(I)c(C(=O)NCC(O)CO)n1)NCC(O)CO (stereo not drawn): > 100 µM (inactive)

(Q) Fill blank: measured GI50 of the compound COC(=O)C1C2C=CC(C2)N1S(=O)(=O)c1ccccc1 (stereo not drawn) is ____.
(A) > 100 µM (inactive)

(Q) Field entry: NC(=O)CO/N=C1/C(=C2/C(=O)Nc3ccccc32)Nc2ccccc21
(A) 2.4 µM (inactive)

(Q) Field entry: O=C1N/C(=N\N=C\c2ccccc2)C2(CCCCC2)O1
(A) > 100 µM (inactive)

(Q) Field entry: Cc1ccc(/C=C/c2n[nH]c(N/N=C/c3ccc4c(c3)OCO4)nc2=O)cc1
(A) 30.8 µM (inactive)
